- subject.of.test: UniProt:P24941
- protocol: Phospho-Rb HTRF measurement in OVCAR3 cells (inhibition of CDK2)
- Type: cell-based
- Set-up: High-Throughput Measurement of Cellular Endogenous CDK2; endogenous in cells; host or cells: OVCAR3
- condition.info: pRB(S807/811) assay, 24 h compound treatment
Decide using IC50 alone. Strictly below 200 nM: Met. Equal to or above 200 nM: Not met.

QUERY: Would you kindly verify if IC50 of O=C1CCC(N2C(=O)c3cccc(NC(=O)COCCOCCOCCOCCNS(=O)(=O)N4CCC(Nc5ncc6ccc(=O)n(C7CCCC7)c6n5)CC4)c3C2=O)C(=O)N1 (stereo not drawn) is strictly less than 200 nM?
RESULT: Not met

QUERY: Would you kindly verify if IC50 of O=C(COc1cccc2c1C(=O)N(C1CCC(=O)NC1=O)C2=O)NCCOCCN1CCN(S(=O)(=O)N2CCC(Nc3ncc4ccc(=O)n(C5CCCC5)c4n3)CC2)CC1 (stereo not drawn) is strictly less than 200 nM?
RESULT: Not met

QUERY: Would you kindly verify if IC50 of Cn1c(=O)n(C2CCC(=O)NC2=O)c2cccc(CCCOC3CCN(S(=O)(=O)N4CCC(Nc5ncc6ccc(=O)n(C7CCCC7)c6n5)CC4)CC3)c21 (stereo not drawn) is strictly less than 200 nM?
RESULT: Not met

QUERY: Would you kindly verify if IC50 of O=C(COc1cccc2c1C(=O)N(C1CCC(=O)NC1=O)C2=O)NCCOCCOCCN1CCN(S(=O)(=O)N2CCC(Nc3ncc4ccc(=O)n(C5CCCC5)c4n3)CC2)CC1 (stereo not drawn) is strictly less than 200 nM?
RESULT: Not met

QUERY: Would you kindly verify if IC50 of O=C1CCC(N2Cc3cc(N4CCC(CN5CCC(c6cccc(S(=O)(=O)N7CCC(Nc8ncc9ccc(=O)n(C%10CCCC%10)c9n8)CC7)c6)CC5)CC4)ccc3C2=O)C(=O)N1 (stereo not drawn) is strictly less than 200 nM?
RESULT: Met

QUERY: Would you kindly verify if IC50 of O=C1CCC(N2Cc3cc(N4CC5(CN(Cc6cccc(S(=O)(=O)N7CCC(Nc8ncc9ccc(=O)n(C%10CCCC%10)c9n8)CC7)c6)C5)C4)ccc3C2=O)C(=O)N1 (stereo not drawn) is strictly less than 200 nM?
RESULT: Met

QUERY: Would you kindly verify if IC50 of O=C1CCC(N2C(=O)c3cccc(NCCOCCOCCOCCOCCNS(=O)(=O)N4CCC(Nc5ncc6ccc(=O)n(C7CCCC7)c6n5)CC4)c3C2=O)C(=O)N1 (stereo not drawn) is strictly less than 200 nM?
RESULT: Not met

QUERY: Would you kindly verify if IC50 of O=C1CCC(N2Cc3cc(C4CCN(CC5CCN(c6cccc(S(=O)(=O)N7CCC(Nc8ncc9ccc(=O)n(C%10CCCC%10)c9n8)CC7)c6)CC5)CC4)ccc3C2=O)C(=O)N1 (stereo not drawn) is strictly less than 200 nM?
RESULT: Not met

QUERY: Would you kindly verify if IC50 of O=C1CCC(N2C(=O)c3cc(F)c(N4CCN(Cc5cccc(S(=O)(=O)N6CC[C@H](Nc7ncc8ccc(=O)n(C9CCCC9)c8n7)[C@@H](F)C6)c5)CC4)cc3C2=O)C(=O)N1 (stereo partly drawn) is strictly less than 200 nM?
RESULT: Not met

QUERY: Would you kindly verify if IC50 of O=C1CCC(N2Cc3cc(C4CN(Cc5cccc(S(=O)(=O)N6CCC(Nc7ncc8ccc(=O)n(C9CCCC9)c8n7)CC6)c5)C4)ccc3C2=O)C(=O)N1 (stereo not drawn) is strictly less than 200 nM?
RESULT: Met

QUERY: Would you kindly verify if IC50 of Cn1c(=O)n(C2CCC(=O)NC2=O)c2cccc(C3CCN(C4CN(c5cccc(S(=O)(=O)N6CCC(Nc7ncc8ccc(=O)n(C9CCCC9)c8n7)CC6)c5)C4)CC3)c21 (stereo not drawn) is strictly less than 200 nM?
RESULT: Not met

QUERY: Would you kindly verify if IC50 of O=C1CCC(N2Cc3cc(N4CCN(C5CN(c6cccc(S(=O)(=O)N7CCC(Nc8ncc9ccc(=O)n(C%10CCCC%10)c9n8)CC7)c6)C5)CC4)ccc3C2=O)C(=O)N1 (stereo not drawn) is strictly less than 200 nM?
RESULT: Met

QUERY: Would you kindly verify if IC50 of O=C1CCC(N2Cc3cc(N4CC5(CN(Cc6cccc(S(=O)(=O)N7CCC(Nc8ncc9ccc(=O)n(C%10%11CC(C%10)C%11)c9n8)CC7)c6)C5)C4)ccc3C2=O)C(=O)N1 (stereo not drawn) is strictly less than 200 nM?
RESULT: Met

QUERY: Would you kindly verify if IC50 of Cn1c(=O)n(C2CCC(=O)NC2=O)c2cccc(CNCCOc3cccc(S(=O)(=O)N4CCC(Nc5ncc6ccc(=O)n(C7CCCC7)c6n5)CC4)c3)c21 (stereo not drawn) is strictly less than 200 nM?
RESULT: Not met

QUERY: Would you kindly verify if IC50 of O=C1CCC(N2C(=O)c3ccc(CN4CC(Oc5cccc(S(=O)(=O)N6CCC(Nc7ncc8ccc(=O)n(C9CCCC9)c8n7)CC6)c5)C4)cc3C2=O)C(=O)N1 (stereo not drawn) is strictly less than 200 nM?
RESULT: Not met

QUERY: Would you kindly verify if IC50 of O=C1CCC(N2C(=O)c3ccc(CN4CC(Oc5ccc(S(=O)(=O)N6CCC(Nc7ncc8ccc(=O)n(C9CCCC9)c8n7)CC6)cc5)C4)cc3C2=O)C(=O)N1 (stereo not drawn) is strictly less than 200 nM?
RESULT: Not met

QUERY: Would you kindly verify if IC50 of O=C1CCC(N2C(=O)c3cccc(NCCOCCOCCNS(=O)(=O)N4CCC(Nc5ncc6ccc(=O)n(C7CCCC7)c6n5)CC4)c3C2=O)C(=O)N1 (stereo not drawn) is strictly less than 200 nM?
RESULT: Not met

QUERY: Would you kindly verify if IC50 of O=C1CCC(N2C(=O)c3cc(F)c(N4CCN(Cc5cccc(S(=O)(=O)N6CCC(Nc7ncc8ccc(=O)n(C9CCCC9)c8n7)CC6)c5)CC4)cc3C2=O)C(=O)N1 (stereo not drawn) is strictly less than 200 nM?
RESULT: Met

QUERY: Would you kindly verify if IC50 of O=C1CCC(N2Cc3cc(N4CCC5(CCN(Cc6cccc(S(=O)(=O)N7CCC(Nc8ncc9ccc(=O)n(C%10CCCC%10)c9n8)CC7)c6)CC5)CC4)ccc3C2=O)C(=O)N1 (stereo not drawn) is strictly less than 200 nM?
RESULT: Met

QUERY: Would you kindly verify if IC50 of O=C1CCC(N2Cc3cc(N4CC(N5CCC(Oc6cccc(S(=O)(=O)N7CCC(Nc8ncc9ccc(=O)n(C%10CCCC%10)c9n8)CC7)c6)CC5)C4)ccc3C2=O)C(=O)N1 (stereo not drawn) is strictly less than 200 nM?
RESULT: Met

The measured values listed here are drawn from patent US20250018049A1.
